# Assay Protocol: Tmax in male Wistar Han rat at 300 mg/kg, po administered as single dose post overnight fasting measured upto 24 hrs by LC-MS/MS analysis
# Format: ADME, organism-based
# Protocol Conditions: in vivo
Measure Name: Tmax (h)
Your answer should be a plain number; it is taken to be in h.

What the record says about COC(=O)N[C@H](C(=O)N1CCC[C@H]1c1ncc(-c2cc(F)c3c(c2)OC(c2ccc4c(c2)OCCC4)n2c-3cc3cc(-c4cnc([C@@H]5CCCN5C(=O)[C@@H](NC(=O)OC)C(C)C)[nH]4)ccc32)[nH]1)C(C)C.Cl.Cl (stereo partly specified) : Tmax is 8

###

# Assay Protocol: Cytotoxicity against human HuH7 cells assessed as reduction in cell viability measured after 72 hrs by Hoechst/Alexa fluor 488 staining based Edu plus cell counting analysis
# Design: species or system Huh-7
Measure Name: CC50 at 72 h

What the record says about COC(=O)N[C@H](C(=O)N1CCC[C@H]1c1ncc(-c2cc(F)c3c(c2)OC(c2ccc4c(c2)OCCC4)n2c-3cc3cc(-c4cnc([C@@H]5CCCN5C(=O)[C@@H](NC(=O)OC)C(C)C)[nH]4)ccc32)[nH]1)C(C)C (stereo partly specified) : CC50 at 72 h is > 50 µM

###

# Assay Protocol: Drug concentration in male Wistar Han rat at 10 mg/kg, po measured after 24 hrs by LC/MS analysis
# Type: ADME, organism-based
# Protocol Conditions: in vivo, read-out: Drug uptake
In this section we review reported concentration at 24 h values for a set of compounds.
Your answer should be a plain number; it is taken to be in nM.

Reference set, count: 2
{"Compound": "COC(=O)N[C@H](C(=O)N1CCC[C@H]1c1ncc(-c2cc(F)c3c(c2)OC(c2ccc4c(c2)OCCC42CC2)n2c-3cc3cc(-c4cnc([C@@H]5CCCN5C(=O)[C@@H](NC(=O)OC)C(C)C)[nH]4)ccc32)[nH]1)C(C)C.O=C(O)C(F)(F)F.O=C(O)C(F)(F)F (stereo partly drawn)", "concentration at 24 h [nM]": 1}
{"Compound": "COC(=O)N[C@H](C(=O)N1CCC[C@H]1c1ncc(-c2cc(F)c3c(c2)OC(c2ccc4c(c2)OCCC4)n2c-3cc3cc(-c4cnc([C@@H]5CCCN5C(=O)[C@@H](NC(=O)OC)C(C)C)[nH]4)ccc32)[nH]1)C(C)C.O=C(O)C(F)(F)F.O=C(O)C(F)(F)F (stereo partly drawn)", "concentration at 24 h [nM]": 17}

Lab note: next compound to report on.
What the record says about COC(=O)N[C@H](C(=O)N1CCC[C@H]1c1ncc(-c2cc(F)c3c(c2)OC(c2ccc4c(c2)OC(C)(C)C4)n2c-3cc3cc(-c4cnc([C@@H]5CCCN5C(=O)[C@@H](NC(=O)OC)C(C)C)[nH]4)ccc32)[nH]1)C(C)C.O=C(O)C(F)(F)F.O=C(O)C(F)(F)F (stereo partly drawn) : concentration at 24 h is 9

###

# Assay Protocol: Cmax in Beagle dog at 5 mg/kg, po administered post overnight fasting measured upto 24 hrs by LC-MS/MS analysis
# Type: ADME, organism-based, Canis lupus familiaris
# Parameters: route oral, dose 5 mg/kg, time <=24
# Protocol Conditions: in vivo
Measure Name: Cmax (nM)
Your answer should be a plain number; it is taken to be in nM.

What the record says about COC(=O)N[C@H](C(=O)N1CCC[C@H]1c1ncc(-c2cc(F)c3c(c2)OC(c2ccc4c(c2)OCCC4)n2c-3cc3cc(-c4cnc([C@@H]5CCCN5C(=O)[C@@H](NC(=O)OC)C(C)C)[nH]4)ccc32)[nH]1)C(C)C.Cl.Cl (stereo partly specified) : Cmax is 1220

###

# Assay Protocol: AUC in Beagle dog at 5 mg/kg, po administered post overnight fasting measured upto 24 hrs by LC-MS/MS analysis
# Assay type: ADME, organism-based, Canis lupus familiaris
# Design: route oral, dose 5 mg/kg, time <=24
# Protocol Conditions: in vivo
Measure Name: AUC at 24 h (µM·h)
Your answer should be a plain number; it is taken to be in µM·h.

What the record says about COC(=O)N[C@H](C(=O)N1CCC[C@H]1c1ncc(-c2cc(F)c3c(c2)OC(c2ccc4c(c2)OCCC4)n2c-3cc3cc(-c4cnc([C@@H]5CCCN5C(=O)[C@@H](NC(=O)OC)C(C)C)[nH]4)ccc32)[nH]1)C(C)C.Cl.Cl (stereo partly specified) : AUC at 24 h is 6.92

###

# Assay Protocol: Mean residence time in Beagle dog at 1 mg/kg, iv administered post overnight fasting measured upto 24 hrs by LC-MS/MS analysis
# Protocol Conditions: in vivo
Measure Name: MRT (min)
Your answer should be a plain number; it is taken to be in min.

What the record says about COC(=O)N[C@H](C(=O)N1CCC[C@H]1c1ncc(-c2cc(F)c3c(c2)OC(c2ccc4c(c2)OCCC4)n2c-3cc3cc(-c4cnc([C@@H]5CCCN5C(=O)[C@@H](NC(=O)OC)C(C)C)[nH]4)ccc32)[nH]1)C(C)C.Cl.Cl (stereo partly specified) : MRT is 684

###

# Assay Protocol: Oral bioavailability in Beagle dog at 5 mg/kg post overnight fasting measured upto 24 hrs by LC-MS/MS analysis
# Format: ADME, organism-based, Canis lupus familiaris
# Protocol Conditions: in vivo
Measure Name: bioavailability (%)
Your answer should be a plain number; it is taken to be in %.

What the record says about COC(=O)N[C@H](C(=O)N1CCC[C@H]1c1ncc(-c2cc(F)c3c(c2)OC(c2ccc4c(c2)OCCC4)n2c-3cc3cc(-c4cnc([C@@H]5CCCN5C(=O)[C@@H](NC(=O)OC)C(C)C)[nH]4)ccc32)[nH]1)C(C)C.Cl.Cl (stereo partly specified) : bioavailability is 16

###

# System: Huh-7
# Assay Protocol: Inhibition of NS5A in Hepatitis C virus subtype 1a infected in human HuH7 cells assessed as reduction in viral replication by luciferase reporter gene assay
# Format: cell-based
Strictly below 5 pM in EC90: MET. Otherwise: NOT MET.

Below are worked cases with known answers.
{"Compound": "COC(=O)N[C@H](C(=O)N1CCC[C@H]1c1ncc(-c2cc(F)c3c(c2)OC(c2ccc4c(c2)O[C@@H](C)CC4)n2c-3cc3cc(-c4cnc([C@@H]5CCCN5C(=O)[C@@H](NC(=O)OC)C(C)C)[nH]4)ccc32)[nH]1)C(C)C (some centres undefined)", "Assigned Label": "NOT MET"}
{"Compound": "COC(=O)N[C@H](C(=O)N1CCC[C@H]1c1ncc(-c2cc(F)c3c(c2)OC(c2ccc4c(c2)OC(C)(C)C4)n2c-3cc3cc(-c4cnc([C@@H]5CCCN5C(=O)[C@@H](NC(=O)OC)C(C)C)[nH]4)ccc32)[nH]1)C(C)C.O=C(O)C(F)(F)F.O=C(O)C(F)(F)F (some centres undefined)", "Assigned Label": "MET"}
{"Compound": "COC(=O)N[C@H](C(=O)N1CCC[C@H]1c1ncc(-c2cc(F)c3c(c2)OC(c2ccc4c(c2)OCC(=O)N4)n2c-3cc3cc(-c4cnc([C@@H]5CCCN5C(=O)[C@@H](NC(=O)OC)C(C)C)[nH]4)ccc32)[nH]1)C(C)C (some centres undefined)", "Assigned Label": "NOT MET"}
{"Compound": "COC(=O)N[C@H](C(=O)N1CCC[C@H]1c1ncc(-c2cc(F)c3c(c2)OC(c2ccc4c(c2)OCCC42CC2)n2c-3cc3cc(-c4cnc([C@@H]5CCCN5C(=O)[C@@H](NC(=O)OC)C(C)C)[nH]4)ccc32)[nH]1)C(C)C.O=C(O)C(F)(F)F.O=C(O)C(F)(F)F (some centres undefined)", "Assigned Label": "MET"}
{"Compound": "COC(=O)N[C@H](C(=O)N1CCC[C@H]1c1ncc(-c2cc(F)c3c(c2)OC(c2ccc4cccnc4c2)n2c-3cc3cc(-c4cnc([C@@H]5CCCN5C(=O)[C@@H](NC(=O)OC)C(C)C)[nH]4)ccc32)[nH]1)C(C)C (some centres undefined)", "Assigned Label": "NOT MET"}
{"Compound": "COC(=O)N[C@H](C(=O)N1CCC[C@H]1c1ncc(-c2cc(F)c3c(c2)OC(c2ccc4c(c2)OCCC4(F)F)n2c-3cc3cc(-c4cnc([C@@H]5CCCN5C(=O)[C@@H](NC(=O)OC)C(C)C)[nH]4)ccc32)[nH]1)C(C)C (some centres undefined)", "Assigned Label": "MET"}

Kindly consider the entry below.
Field: below-cutoff. Rule: recorded EC90 strictly less than 5 pM. Subject: COC(=O)N[C@H](C(=O)N1CCC[C@H]1c1ncc(-c2cc(F)c3c(c2)OC(c2ccc4ccccc4c2)n2c-3cc3cc(-c4cnc([C@@H]5CCCN5C(=O)[C@@H](NC(=O)OC)C(C)C)[nH]4)ccc32)[nH]1)C(C)C (some centres undefined)
NOT MET

###

# Tested on: Nonstructural protein 5A (Hepatitis C virus), Q5L478 [Y93H]
# Sequence (Q5L478 entry or part of it Y93H): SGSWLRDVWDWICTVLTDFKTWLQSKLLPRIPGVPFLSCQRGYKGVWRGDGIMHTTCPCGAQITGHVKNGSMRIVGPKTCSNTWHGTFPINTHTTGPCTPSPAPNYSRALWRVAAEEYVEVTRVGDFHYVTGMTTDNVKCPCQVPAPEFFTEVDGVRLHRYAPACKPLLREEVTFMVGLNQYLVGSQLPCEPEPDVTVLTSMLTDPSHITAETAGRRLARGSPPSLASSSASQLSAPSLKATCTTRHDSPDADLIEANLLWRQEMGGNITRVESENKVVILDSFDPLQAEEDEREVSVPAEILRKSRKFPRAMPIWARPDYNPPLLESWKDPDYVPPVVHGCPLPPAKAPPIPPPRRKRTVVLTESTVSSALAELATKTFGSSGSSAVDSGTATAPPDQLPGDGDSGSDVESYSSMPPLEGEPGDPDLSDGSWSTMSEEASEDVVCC
# Assay Protocol: Inhibition of NS5A Y93H mutant in Hepatitis C virus subtype 1a infected in human HuH7 cells assessed as reduction in viral replication by luciferase reporter gene assay
# Type: cell-based
# Protocol Conditions: Huh-7
Strictly below 3 nM in EC90: criterion met. Otherwise: criterion not met.

Below are worked cases with known answers.
{"Compound": "COC(=O)N[C@H](C(=O)N1CCC[C@H]1c1ncc(-c2cc(F)c3c(c2)OC(c2ccc4c(c2)OCCC4(F)F)n2c-3cc3cc(-c4cnc([C@@H]5CCCN5C(=O)[C@@H](NC(=O)OC)C(C)C)[nH]4)ccc32)[nH]1)C(C)C (some centres not stated)", "Assigned Label": "criterion met"}
{"Compound": "COC(=O)N[C@H](C(=O)N1CCC[C@H]1c1ncc(-c2cc(F)c3c(c2)OC(c2ccc4c(c2)OC(C)(C)CC4)n2c-3cc3cc(-c4cnc([C@@H]5CCCN5C(=O)[C@@H](NC(=O)OC)C(C)C)[nH]4)ccc32)[nH]1)C(C)C (some centres not stated)", "Assigned Label": "criterion met"}
{"Compound": "COC(=O)N[C@H](C(=O)N1CCC[C@H]1c1ncc(-c2ccc3c(c2)OC(c2cccc(-c4ccccc4)c2)n2c-3cc3cc(-c4cnc([C@@H]5CCCN5C(=O)[C@@H](NC(=O)OC)C(C)C)[nH]4)ccc32)[nH]1)C(C)C (mixture of isomers)", "Assigned Label": "criterion not met"}
{"Compound": "COC(=O)N[C@H](C(=O)N1CCC[C@H]1c1ncc(-c2cc(F)c3c(c2)OC(c2ccc4c(c2)OCCC42CC2)n2c-3cc3cc(-c4cnc([C@@H]5CCCN5C(=O)[C@@H](NC(=O)OC)C(C)C)[nH]4)ccc32)[nH]1)C(C)C.O=C(O)C(F)(F)F.O=C(O)C(F)(F)F (some centres not stated)", "Assigned Label": "criterion met"}

Kindly consider the entry below.
Field: below-cutoff. Rule: recorded EC90 strictly less than 3 nM. Subject: COC(=O)N[C@H](C(=O)N1CCC[C@H]1c1ncc(-c2cc(F)c3c(c2)OC(c2ccc4ccccc4c2)n2c-3cc3cc(-c4cnc([C@@H]5CCCN5C(=O)[C@@H](NC(=O)OC)C(C)C)[nH]4)ccc32)[nH]1)C(C)C (some centres not stated)
criterion not met
